Where do the numbers come from? From the supplement of paper PMC13380429.

- System: Vero E6 infected with SARS-CoV-2
- experimental protocol: morphology score (similarity to uninfected cells); higher = more like uninfected cells
- measurement conditions: 24 h
// reported morphology score per item
readout kind: morphology score

compound="C=C1CC[C@H](O)C/C1=C/C=C1\\CCC[C@]2(C)[C@@H]([C@H](C)CCCC(C)(C)O)CC[C@@H]12 [calcifediol] (10 µM)" experimental_target="Vero E6 infected with SARS-CoV-2" experimental_result=-0.0147
compound="COC(=O)C(Cc1ccc(OCCn2c(=O)sc3cc(C(=O)c4ccccc4)ccc32)cc1)C(=O)OC (10 µM)" experimental_target="Vero E6 infected with SARS-CoV-2" experimental_result=0.318
compound="Cn1cccc1/C=C1\\C(=O)NC(=O)c2ccccc21 (0.833333 µM)" experimental_target="Vero E6 infected with SARS-CoV-2" experimental_result=0.0943
compound="CN(C)C/C=C/C(=O)Nc1ccc(C(=O)Nc2cccc(Nc3ncc(Cl)c(-c4c[nH]c5ccccc45)n3)c2)cc1 (10 µM)" experimental_target="Vero E6 infected with SARS-CoV-2" experimental_result=-0.108
